Biological target: T1, human CD166 protein (human) (UniProt Q13740)
T1 sequence (looked up): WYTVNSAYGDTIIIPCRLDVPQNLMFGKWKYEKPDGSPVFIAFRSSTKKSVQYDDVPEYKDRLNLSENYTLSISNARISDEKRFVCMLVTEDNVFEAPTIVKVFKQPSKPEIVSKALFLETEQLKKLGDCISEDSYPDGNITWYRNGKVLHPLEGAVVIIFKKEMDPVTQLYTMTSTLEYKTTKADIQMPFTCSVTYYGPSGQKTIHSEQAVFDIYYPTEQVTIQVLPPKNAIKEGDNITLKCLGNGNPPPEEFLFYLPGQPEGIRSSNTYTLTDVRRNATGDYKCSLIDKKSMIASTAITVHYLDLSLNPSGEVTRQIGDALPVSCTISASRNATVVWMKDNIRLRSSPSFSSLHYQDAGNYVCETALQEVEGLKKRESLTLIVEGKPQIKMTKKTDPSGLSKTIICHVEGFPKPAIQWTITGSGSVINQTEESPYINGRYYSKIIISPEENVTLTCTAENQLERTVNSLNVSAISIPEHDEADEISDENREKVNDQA
Assay: ELISA; relative to parental CD166 M9 vk1/HcB
MEASURED PARAMETER: Fold Increase in Kd

BINDER: CD166-16522.21-2001 (antibody, part only; not given: linkers and constant regions, V domains shown, not shown: small tags and cut ends) VH: QITLKESGPTLVKPTQTLTLTCTFSGFSLSTYGMGVGWIRQPPGKALEWLANIWWSEDKHYSPSLKSRLTITKDTSKNQVVLTMTNMDPVDTATYYCVQIDYGNDYAFTYWGQGTLVTVSS VL, part: CLHPLCISSGLLSGRSDNHDIVMTQSPLSLPVTPGEPASISCRSSKSLLHSNGITYLYWYLQKPGQSPQLLIYQMSNLASGVPDRFSGSGSGTDFTLKISRVEAEDVGVYYCAQNLELPYTFGQGTKLEIK
OBSERVED: 33 fold
